In this section, each of the binders is paired with its reported MFI.
Molecular target: T1, 017-mut2 peptide (…)/HLA-A*02:01 complex on T2 cells (human)
T1 construct: Alanine mutant at position 2, the anchor position; the peptide may load poorly onto HLA-A2; also called EXT017-mut2
Experiment: flow cytometry, phage on peptide-loaded T2 cells
Write no unit; give the number alone.

The binder listed as EXT017-20 scFv phage clone (scFv, full-length scFv with His+HA tags; also called EXT017-20 phage) scFv: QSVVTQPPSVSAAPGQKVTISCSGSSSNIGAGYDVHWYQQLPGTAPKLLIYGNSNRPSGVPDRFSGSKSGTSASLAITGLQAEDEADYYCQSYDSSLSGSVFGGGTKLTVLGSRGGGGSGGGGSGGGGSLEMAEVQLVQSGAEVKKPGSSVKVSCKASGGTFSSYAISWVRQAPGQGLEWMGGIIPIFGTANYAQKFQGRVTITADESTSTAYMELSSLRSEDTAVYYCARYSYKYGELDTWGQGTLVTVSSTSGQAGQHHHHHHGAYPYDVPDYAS shows MFI equal to 96

Lookup result for EXT017-28 scFv phage clone (scFv, full-length scFv with His+HA tags; also called EXT017-28 phage; phage clone #28) scFv: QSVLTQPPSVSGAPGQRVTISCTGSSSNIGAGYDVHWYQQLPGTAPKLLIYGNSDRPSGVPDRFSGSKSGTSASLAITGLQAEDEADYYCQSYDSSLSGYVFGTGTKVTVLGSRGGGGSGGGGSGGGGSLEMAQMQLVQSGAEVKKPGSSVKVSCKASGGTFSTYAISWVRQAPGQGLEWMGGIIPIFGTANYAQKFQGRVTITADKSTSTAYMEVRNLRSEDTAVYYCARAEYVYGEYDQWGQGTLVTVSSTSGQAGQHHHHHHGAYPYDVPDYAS ; measured MFI: 102
